All values here come from the DeepSol protein solubility set.

# procedure_text: soluble on expression in E. coli; label from the status in PepcDB or PDB records
reported_endpoint: soluble on expression in E. coli

Some sequences with known soluble on expression in E. coli results, for comparison:
MCAALKRCAYRHKGKIMENTNIVTTEQQAPNTISASNAIFNVQALGQLTAFANLMADSQVTVPAHLAGKPADCMAIVMQAMQWGMNPYAVAQKTHLVNGVLGYEAQLVNAVIASSSAIHGRFHYRYGGDWERCTRTQEITRDKNGKNGKYTVTERVRGWTDEDEIGLFVQVGAILRGESEITWGEPLYLSGVVTRNSPLWVSNPKQQIAYLGVKYWARLYCPEVILGVYSPDEVEQREEREINPAPVQRMSVQEITSEVSTRTSAQESAANVDAVADDLRERIDTASSVDQAKAIRADIESQKALLGTALFTELKNKAVKRYYQVNAQNKVEAVINSIPNPGEPEAAEMFAKAESTLGAAKRHLGDELHDKYRVTLDDMKPEYIG : not soluble
MGSDKIHHHHHHMKVCILGATGRVGSNIIKLALKDSVEVTALARDSSRVEINHERLRVIEGNVLNENDIKKAIEGSDIVISALGTDQNGTLAKSMPQIIKKMEEEGVRKIITIGTAGILQARTNLNLYRFQSTESKRKSTTAAEEHLAAYKILSSSNLCWTVVCPTHLIDGDVTGIYRTEKDVLPEGGAKITVGDTAQFTWNLCSKNKYENSRVGISY : not soluble
MKALHFGAGNIGRGFIGKLLADAGIELTFADVNQTVLDALNARHSYQVHVVGENEQVDTVSGVNAVSSIGDEVVDLIAEVDLVTTAVGPVVLERIAPAIAKGLAQRKAQGTERPLNIIACENMVRGTTQLKGHVFNALAEEHKAWVEAHIGFVDSAVDRIVPPSASATHDPLEVTVETFSEWIVDKTQFKGALPTIPGMELTDNLMAFVERKLFTLNTGHAITAYLGKLAGHQTIRDAILDEKIRAVVQGAMEESGAVLIKRYAFDPQKHAAYIQKILGRFENPYLKDDVERVGRQPLRKLSAGDRLIKPLLGTLEYGLPHRNLVKGIAAAMHFRSEDDPQAQELAALIADKGPQAALAQISGLDAASDVVAEAVNDYNAEK : not soluble
MKRIPIKELIVEHPGKVLILDGGQGTELENRGININSPVWSAAPFTSESFWEPSSQERKVVEEMYRDFMIAGANILMTITYQANFQSISENTSIKTLAAYKRFLDKIVSFTREFIGEERYLIGSIGPWAAHVSCEYTGDYGPHPENIDYYGFFKPQLENFNQNRDIDLIGFETIPNFHELKAILSWDEDIISKPFYIGLSVDDNSLLRDGTTLEEISVHIKGLGNKINKNLLLMGVNCVSFNQSALILKMLHEHLPGMPLLVYPNSGEIYNPKEKTWHRPTNKLDDWETTVKKFVDNGARIIGGCCRTSPKDIAEIASAVDKYS : soluble
MNIIGLDISKDTIDATLHKTNGSIHYIKFKNNDDGLKQFRLWIKGNRIRKVYIGMEATGIYYEKAADMLSSYYTVYVINPLKIKDYGKSRFNRTKTDKADSNLIADYIKRHQDTLIPYQIPKNKALQKLINLKNQLHQHQKQIKNRLHSTEEDFIRNIHQDLIDTIQDKMEQVKIAISEQIKKQTDNNHYRNLQTIPSIGKDTASVLYAQLTEKHFKTANQFVSYAGLNPAIIQSGTSVRGRGRLSRYGNRRLKSTLYMPALCAYRFNAFPKLINNLKKAGKPKMVIIVAIMRKLAKLAYYIVKTGQPYDAERHRLNQ : not soluble
MSLRLEDIQAFLNVVELGSISAAAERMSLSKSVISKRVSDLERHLGVRLLYRSTRNVEPTEAGGFFYKSAKASLQDLNNAAESVALRENDLCGELRVMAPMSFGTLWLGPLVMEFMARNPRLEVVLQLDDRIVDFEKEGYDLAIRITRLQDSSLIARQLGTSRRVVCCSPEYLERHGPLQRIEDILCHPCIGYSHNTPSQLWSFEPRVAGEPARMITPRGRFNTNNGQTMRDAAVRGLGLAMLPLFIAAEDLAAGRLVEALPQERPLDDLIYAMYSRAATLSPKVKLFVQFLQQALGSPPWGVR : not soluble

Input: soluble on expression in E. coli for MGSDKIHHHHHHMGREIFNRRLPDNYNDFSHSMDNAANGHYFLRVASSNYKRPDGKNVRTVRDVIAEVDQNGVVVDEWRLFDILDPYRDVIMKTLDQGAVCLNIDASQSGHTLSEEDLAALDSSDKFGDIVGSGAGRNWAHVNSVDYDSEDDSIIISSRHQSAIIKIGRDKKVKWILGTPAGWKAPFNAAILTPVDSKGQKIACQDSGCEGDFDWTWTQHTAFKIDSKSKGDILYLSAFDNGDGRGLEQPAMQSMKYSRSVIYKIDQKNKTVQQIWQYGKERGNEWFSPVTSITEYQTDKNSVFVYSATAGGAFDLSVGAFTSLPNPYLEEFKWGEKEPAVEMQIHGARGYQAMPFSLTKALTE ?
Output: not soluble

Input: Can you look up the measured soluble on expression in E. coli of MKDEISNPDLGAIYTTKILGVLLENWPKQTYLCCSEVTGIDFDEESVFDSFSPQPYPKEWEVCRDLIVWLENEGFIRSEGSRGSSFGFFSVEITMSAMTALNQVPDPLDPESTRTLKDTLKDIAKSGSGKLADKIMDKAFFAFVTMLEKSAG for me?
Output: not soluble

Input: Fill blank: measured soluble on expression in E. coli of the sequence MSAITAPLPTLDDLATLTLSIKAWGRELGFQEVGISGLDLAEHEQHLQRWLDAGYHGEMDYMAAHGSKRSHPDELVPGTLRVVSLRMDYLPGDTEMAQRLTEPEKAYVSRYALGRDYHKLIRKRLQQLAERIQQAIGPFGFRAFVDSAPVLEKAIAEQAGLGWIGKNTLVLNRKAGSFFFLGELFVDIPLPVDAPHATEHCGRCTACLDICPTAAFVGPYVLDARRCISYLTIELKTAIPEELRPLIGNRVFGCDDCQIVCPWNRFARPTDQSDFQPRHNLDNAGLAELFLWDEEKFLGSTEGSPLRRAGYERWLRNLAVGLGNAPSTIPVIEALQARRDYPSELVREHVEWALQRHGVAPL is ____.
Output: not soluble

Input: Can you look up the measured soluble on expression in E. coli of MKPEKIDCNFKLIYCEDEESKGGRLEFSLEEVLAISRNVYKRVRTNRKHHHHHH for me?
Output: soluble
